- test system: SARS-CoV-2 3CL protease (Severe acute respiratory syndrome coronavirus 2)
- experiment description: Inhibitory activity test against SARS-CoV-2 3CL proteases
- Format: biochemical
- condition set: read-out: IC50 (50% SARS-CoV-2 3CL protease inhibitory concentration)
pIC50: −log10 of the molar value.
Consider the following compounds and their measured pIC50 readings.
measured quantity: pIC50

compound	test system	measured quantity	modifier	measured
COc1cc(-c2cc(C(=O)NCCN(C)C)ccc2Cl)cc2c1c(=O)n(-c1cncc(C)c1)c(=O)n2Cc1ccc(F)c(C#N)c1	SARS-CoV-2 3CL protease (Severe acute respiratory syndrome coronavirus 2)	pIC50	>	7.00
[2H]C([2H])([2H])O[C@@H]1CCN(c2cc3c(c(OC)n2)c(=O)n(-c2cncc(Cl)c2C)c(=O)n3-c2ccc(F)c(Cl)c2)C1 (atropisomer, axis not shown)	SARS-CoV-2 3CL protease (Severe acute respiratory syndrome coronavirus 2)	pIC50	=	8.64
Cn1cnc(Cn2c(=O)c3c4c(c(N5CC[C@@H](O)C5)cc3n(Cc3cc(F)c(F)c(F)c3)c2=O)CCO4)n1	SARS-CoV-2 3CL protease (Severe acute respiratory syndrome coronavirus 2)	pIC50	>	7.00
Cn1cnc(Cn2c(=O)c3c4nccnc4c(-c4cc5c(cc4Cl)NC(=O)C5)cc3n(Cc3cc(F)c(F)c(Cl)c3)c2=O)n1	SARS-CoV-2 3CL protease (Severe acute respiratory syndrome coronavirus 2)	pIC50	=	9.12
COc1cc(-c2c(Cl)ccc3c2CC(=O)N3C)cc2c1c(=O)n(Cc1ncn(C)n1)c(=O)n2Cc1cc(F)c(F)c(F)c1	SARS-CoV-2 3CL protease (Severe acute respiratory syndrome coronavirus 2)	pIC50	>	7.00
Cc1cncc(-n2c(=O)c3c(Cl)cc(-c4cc(CO)ccc4Cl)cc3n(Cc3ccc(F)c(C#N)c3)c2=O)c1	SARS-CoV-2 3CL protease (Severe acute respiratory syndrome coronavirus 2)	pIC50	=	7.52
COC[C@H]1CCCN1c1cc2c(c(OC)n1)c(=O)n(-c1cnc3cc(F)ccn13)c(=O)n2-c1ccc(F)c(Cl)c1	SARS-CoV-2 3CL protease (Severe acute respiratory syndrome coronavirus 2)	pIC50	>	7.00
COc1cc(-c2cc3c(cc2Cl)NC(=O)C3)cc2c1c(=O)n(-c1cncc(C)c1)c(=O)n2Cc1cc(C#N)ccc1Cl	SARS-CoV-2 3CL protease (Severe acute respiratory syndrome coronavirus 2)	pIC50	=	8.72
O=c1c2c(=O)n(-c3cnc4cc(F)ccn34)c(=O)n(-c3ccc(F)c(Cl)c3)c2cc2n1C[C@@H]1CCCCN21	SARS-CoV-2 3CL protease (Severe acute respiratory syndrome coronavirus 2)	pIC50	>	7.00
COc1nc(N2CC(C#N)C2)cc2c1c(=O)n(-c1cnc3cc(F)ccn13)c(=O)n2-c1ccc(F)c(Cl)c1	SARS-CoV-2 3CL protease (Severe acute respiratory syndrome coronavirus 2)	pIC50	>	7.00
COc1nc(N2CCC(F)(F)C2)cc2c1c(=O)n(-c1cnc3cc(F)ccn13)c(=O)n2-c1ccc(F)c(C(F)F)c1	SARS-CoV-2 3CL protease (Severe acute respiratory syndrome coronavirus 2)	pIC50	>	7.00
COc1cc(-c2cc3c(cc2Cl)NC(=O)C3(C)C)cc2c1c(=O)n(Cc1ncn(C)n1)c(=O)n2Cc1cc(F)c(F)c(F)c1	SARS-CoV-2 3CL protease (Severe acute respiratory syndrome coronavirus 2)	pIC50	=	7.72
Cn1cnc(Cn2c(=O)c3nc(OCC#N)c(-c4cc(C#N)ccc4Cl)cc3n(Cc3cc(F)c(F)c(F)c3)c2=O)n1	SARS-CoV-2 3CL protease (Severe acute respiratory syndrome coronavirus 2)	pIC50	=	7.55
COc1nc(N2C[C@@H](F)[C@@H](F)C2)cc2c1c(=O)n(-c1cnc3cc(F)ccn13)c(=O)n2-c1ccc(F)c(Cl)c1	SARS-CoV-2 3CL protease (Severe acute respiratory syndrome coronavirus 2)	pIC50	>	7.00
COc1nc(N2C[C@H]3C[C@@H]2CO3)cc2c1c(=O)n(-c1cnc3cc(F)ccn13)c(=O)n2-c1ccc(F)c(Cl)c1	SARS-CoV-2 3CL protease (Severe acute respiratory syndrome coronavirus 2)	pIC50	>	7.00
Cc1cncc(-n2c(=O)c3c(F)cc(-c4cc(C#N)ccc4Cl)cc3n(Cc3cc(F)c(F)c(F)c3)c2=O)c1	SARS-CoV-2 3CL protease (Severe acute respiratory syndrome coronavirus 2)	pIC50	>	7.00
COc1nc(N2CC[C@@H](C#N)C2)cc2c1c(=O)n(-c1cncc(C#N)c1)c(=O)n2-c1ccc(F)c(F)c1	SARS-CoV-2 3CL protease (Severe acute respiratory syndrome coronavirus 2)	pIC50	>	7.00
COc1nc2c(=O)n(Cc3ncn(C)n3)c(=O)n(Cc3cc(Cl)cc(Cl)c3)c2cc1-c1cc(C#N)ccc1Cl	SARS-CoV-2 3CL protease (Severe acute respiratory syndrome coronavirus 2)	pIC50	>	7.00
COc1nc(N2CC[C@@H](C#N)C2)cc2c1c(=O)n(-c1cncc(Cl)c1)c(=O)n2-c1ccc(F)c(Cl)c1	SARS-CoV-2 3CL protease (Severe acute respiratory syndrome coronavirus 2)	pIC50	=	8.96
COc1nc(-c2cc(C#N)ccc2Cl)cc2c1c(=O)n(-c1cnc3cc(F)ccn13)c(=O)n2Cc1cc(F)c(F)c(F)c1	SARS-CoV-2 3CL protease (Severe acute respiratory syndrome coronavirus 2)	pIC50	>	7.00
COc1cc(-c2cc(C#N)ccc2Cl)cc2c1c(=O)n(Cc1ncn(C)n1)c(=O)n2Cc1cc(F)c(F)c(Cl)c1	SARS-CoV-2 3CL protease (Severe acute respiratory syndrome coronavirus 2)	pIC50	>	7.00
Cn1cnc(Cn2c(=O)c3c(cc(-c4cc(C#N)ccc4Cl)n4cnnc34)n(Cc3cc(F)c(F)c(F)c3)c2=O)n1	SARS-CoV-2 3CL protease (Severe acute respiratory syndrome coronavirus 2)	pIC50	>	7.00
Cn1cnc(Cn2c(=O)c3c4ncccc4c(-c4cc(C#N)ccc4Cl)cc3n(Cc3cc(F)c(F)c(F)c3)c2=O)n1	SARS-CoV-2 3CL protease (Severe acute respiratory syndrome coronavirus 2)	pIC50	=	8.51
COc1nc(-c2cc(C#N)ccc2Cl)cc2c1c(=O)n(Cc1ncn(C)n1)c(=O)n2Cc1cc(F)c(F)c(Cl)c1	SARS-CoV-2 3CL protease (Severe acute respiratory syndrome coronavirus 2)	pIC50	=	7.80
Cn1cnc(Cn2c(=O)c3c4nccnc4c(-c4cc(C(C)(C)O)ccc4Cl)cc3n(Cc3cc(F)c(F)c(Cl)c3)c2=O)n1	SARS-CoV-2 3CL protease (Severe acute respiratory syndrome coronavirus 2)	pIC50	=	8.89
